assay: Oral bioavailability in rat; type: ADME, organism-based; details: in vivo
recorded_metric: bioavailability (%)

1. C[C@@H](c1ccc2ncccc2c1)c1nnc2ccc(-c3ccc(F)c(F)c3)nn12 : 52
2. C[C@@H](c1ccc2ncccc2c1)c1nnc2ccc(-c3cccc(C#N)c3)nn12 : 13
3. C[C@@H](c1ccc2ncccc2c1)c1nnc2ccc(-c3cnn(C)c3)nn12 : 58

* * *

assay: in vitro; details: human, liver microsomes
recorded_metric: log10(microsomal CLint at 0.5 h, 1 µM) (log10 of the value in µL/min/mg)

1. Cc1cccc(-c2ccc3nnc([C@@H](C)c4ccc5ncccc5c4)n3n2)c1 : 1.91
2. C[C@@H](c1ccc2ncccc2c1)c1nnc2ccc(-c3ccc(C#N)cc3)nn12 : 1.08
3. C[C@@H](c1ccc2ncccc2c1)c1nnc2ccc(-c3cccc(C#N)c3)nn12 : 1.25
4. CCS(=O)(=O)c1ccc(-c2ccc3nnc([C@@H](C)c4ccc5ncccc5c4)n3n2)cc1 : 1.02
5. C[C@@H](c1ccc2ncccc2c1)c1nnc2ccc(-c3ccc(N(C)C)nc3)nn12 : 2.37
6. C[C@@H](c1c[nH]c2ncccc12)c1nnc2ccc(-c3ccc(C#N)cc3)nn12 : 1.45

* * *

Known logD of a selection of compounds
assay: Partition coefficient of the compound at pH 7.4; type: physicochemical; conditions: octanol/water
recorded_metric: logD

1. C[C@@H](c1ccc2ncccc2c1)c1nnc2ccc(-c3cccc(C#N)c3)nn12 : 2.8
2. C[C@@H](c1ccc2ncccc2c1)c1nnc2ccc(-c3ccc(F)c(F)c3)nn12 : 3.07
3. C[C@@H](c1ccc2ncccc2c1)c1nnc2ccc(-c3cnn(C)c3)nn12 : 2.05

* * *

test: in vitro; details: human, liver microsomes
recorded_metric: microsomal CLint at 0.5 h, 1 µM (µL/min/mg)

1. COc1ccc(-c2ccc3nnc([C@@H](C)c4ccc5ncccc5c4)n3n2)cc1F : 281
2. CC(C)Nc1ccc2nnc([C@@H](C)c3ccc4ncccc4c3)n2n1 : 20.2
3. Fc1ccc(-c2ccc3nnc(Cc4ccc5ncccc5c4)n3n2)cc1F : 13.4
4. C[C@@H](c1ccc2ncccc2c1)c1nnc2ccc(-c3ccccc3C#N)nn12 : 23.1
5. CNC(=O)c1ccc(-c2ccc3nnc([C@@H](C)c4ccc5ncccc5c4)n3n2)cc1 : 12.2
6. CCNc1ccc2nnc([C@@H](C)c3c[nH]c4ncccc34)n2n1 : 18
7. CC(C)Nc1ccc2nnc([C@@H](C)c3c[nH]c4ncccc34)n2n1 : 25
8. C[C@@H](c1ccc2ncccc2c1)c1nnc2ccc(-c3ccc4c(c3)OCCO4)nn12 : 304

* * *

experiment: in vitro; conditions: human, liver microsomes
Known microsomal CLint at 0.5 h, 1 µM of a selection of molecules
recorded_metric: microsomal CLint at 0.5 h, 1 µM

1) Cn1cc(-c2ccc3nnc(Cc4c[nH]c5ncccc45)n3n2)cn1 : < 7.6 µL/min/mg
2) C[C@@H](c1ccc2ncccc2c1)n1nnc2ncc(-c3cnn(CCO)c3)nc21 : < 7.6 µL/min/mg
3) CN(C)c1ccc2nnc(Cc3ccc4ncccc4c3)n2n1 : 35 µL/min/mg
4) N#Cc1cccc(-c2ccc3nnc(Cc4ccc5ncccc5c4)n3n2)c1 : 22.7 µL/min/mg
5) C[C@@H](c1ccc2ncccc2c1)c1nnc2ccc(-c3ccc(F)c(F)c3)nn12 : 13.4 µL/min/mg
6) COc1ccc(-c2ccc3nnc([C@@H](C)c4ccc5ncccc5c4)n3n2)cc1C : 304 µL/min/mg
